The reported numbers originate from PubChem BioAssay AID1996.

- Condition Details: buffer; pH 7.4; 200.0 µM
Measured Parameter: solubility kinetic (µg/mL)
A number alone suffices; assume µg/mL.

Smiles Input	solubility kinetic, µg/mL
O=C(/C=C/c1ccc([N+](=O)[O-])cc1)/C=C/c1ccco1	3.1
CCCc1nc2c(sc3nc4c(cc32)COC(C)(C)C4)c(=O)o1	24.1
CCOc1ccc(S(=O)(=O)NCCCn2ccnc2)cc1	45.4
O=C(Nc1nc2ccc(F)cc2s1)Oc1ccccc1	1.7

Attention now turns to another entry.
Entry NC(=O)c1ccc(NC(=O)COc2cccc3ccccc23)cc1 — recorded solubility kinetic = 1.1

====

- Condition Details: buffer; pH 7.4; 200.0 µM
Measured Parameter: log10(solubility kinetic) (log10 of the value in µg/mL)
On a log10 scale: recorded solubility kinetic, unit µg/mL.

Compound	log10(solubility kinetic)
CC1CCCN(CCC(=O)c2ccc(Br)cc2)C1.Cl (stereo not given)	1.53

Entry Cc1noc(C)c1COC(=O)c1csc2c1CCC(C)C2 (stereo not given) — recorded log10(solubility kinetic) = 0.15

Entry Cc1[nH]c2ccccc2c1C(=O)CN1C(=O)C(=O)N(C2CCCC2)C1=O — recorded log10(solubility kinetic) = 0.51

Entry CCN(c1ccccc1)S(=O)(=O)c1ccc(OC)c(NC(=O)C2CCC2)c1 — recorded log10(solubility kinetic) = 1.36

Entry Cc1cccc(NC(=O)c2cccnc2)c1C — recorded log10(solubility kinetic) = 1.38

Entry CCOC(=O)c1c(N)sc(C(=O)Nc2ccccc2)c1C — recorded log10(solubility kinetic) = 1.61

Entry FC(F)(F)c1ccnc(NCc2ccc(Cl)cc2)n1 — recorded log10(solubility kinetic) = 0.63

Entry Cc1oc(C(N)=O)cc1COc1ccc(C(N)=O)cc1 — recorded log10(solubility kinetic) = 1.52

Entry Cc1ccc(N2C(=O)SC(Cc3ccccc3)C2=O)cc1 (stereo not given) — recorded log10(solubility kinetic) = -0.10

Entry CN1CCN(c2ncnc3nc[nH]c23)CC1 — recorded log10(solubility kinetic) = 1.46

Entry O=S(=O)(NC(=S)NC1CCCCC1)c1ccccc1 — recorded log10(solubility kinetic) = 1.64

Entry Cc1cccc(NC(=O)c2ccc3c(c2)OCCO3)c1 — recorded log10(solubility kinetic) = 1.55

Entry CC(C)[C@H](NS(=O)(=O)c1ccccc1)C(=O)Nc1ccccc1N1CCOCC1 — recorded log10(solubility kinetic) = 1.72

Entry CC(Sc1ccccn1)C(=O)Nc1ccc2c(c1)OCO2 (stereo not given) — recorded log10(solubility kinetic) = 1.59

====

- Condition Details: buffer; pH 7.4; 200.0 µM
The following compounds are listed with their measured log10(solubility kinetic) values.
On a log10 scale: recorded solubility kinetic, unit µg/mL.

Use these answered entries as a reference point.
Smiles Input	log10(solubility kinetic)
CC1=Nc2cc([N+](=O)[O-])ccc2NC(C)(C)C1	1.23
CCn1c(SCc2ccc(F)cc2)nc2c(c1=O)SCC2	-0.05
COc1cc2c(cc1OC)CN(CC(=O)Nc1ccc(F)cc1F)CC2	1.64
CC(C)NC(=S)N1CCC(Cc2ccccc2)CC1	1.39
COc1cc2cc(C(=O)N(C)Cc3ccccc3)[nH]c2cc1OC	-0.15

Entry CN(C)c1ccc(/C=C2\C(=O)NC(=O)N(CCc3ccc(F)cc3)C2=O)cc1 — recorded log10(solubility kinetic) = 1.05

Entry CCOc1ccc(NC(=O)c2cc(=O)[nH]c3ccccc23)cc1 — recorded log10(solubility kinetic) = 0.11

Entry Cc1cccc(NC(=O)c2ccc(S(=O)(=O)N3CCOCC3)cc2)n1 — recorded log10(solubility kinetic) = 1.68

Entry CC(C)CNC(=O)c1ccc2c(c1)C(=O)N(Cc1ccco1)C2=O — recorded log10(solubility kinetic) = 1.41

Entry COc1ccc(NC(=S)N2CCC(Cc3ccccc3)CC2)cc1OC — recorded log10(solubility kinetic) = 0.38

Entry Cc1cc(NCc2cccnc2)no1 — recorded log10(solubility kinetic) = 1.45

Entry Cc1ccc(C(=O)NC2=NCCS2)cc1Cl — recorded log10(solubility kinetic) = 0.49
